// provenance: BigSolDB 2.1

- TEST_PARAMETERS: in ethyl acetate, 293.15 K
OBSERVATION_TYPE: solubility (mole fraction)

LINE_NOTATION	READING
CCCCOc1ccc(C(=O)CCN2CCCCC2)cc1.Cl	0.012

----------
- TEST_PARAMETERS: in DMF, 278.15 K
OBSERVATION_TYPE: solubility (mole fraction)

LINE_NOTATION	READING
CCCCOc1ccc(C(=O)CCN2CCCCC2)cc1.Cl	0.0201

----------
- TEST_PARAMETERS: in THF, 293.15 K

LINE_NOTATION	solubility (mole fraction)
CCCCOc1ccc(C(=O)CCN2CCCCC2)cc1.Cl	0.00119

----------
- TEST_PARAMETERS: in THF, 303.15 K
OBSERVATION_TYPE: solubility (mole fraction)

LINE_NOTATION	OBSERVATION_TYPE	READING
CCCCOc1ccc(C(=O)CCN2CCCCC2)cc1.Cl	solubility (mole fraction)	0.00147

----------
- TEST_PARAMETERS: in ethyl acetate, 303.15 K

LINE_NOTATION	solubility (mole fraction)
CCCCOc1ccc(C(=O)CCN2CCCCC2)cc1.Cl	0.0181

----------
- TEST_PARAMETERS: in ethanol, 283.15 K
OBSERVATION_TYPE: solubility (mole fraction)

LINE_NOTATION	OBSERVATION_TYPE	READING
CCCCOc1ccc(C(=O)CCN2CCCCC2)cc1.Cl	solubility (mole fraction)	0.07

----------
- TEST_PARAMETERS: in ethyl acetate, 288.15 K
OBSERVATION_TYPE: solubility (mole fraction)

LINE_NOTATION	READING
CCCCOc1ccc(C(=O)CCN2CCCCC2)cc1.Cl	0.00983

----------
- TEST_PARAMETERS: in THF, 318.15 K
OBSERVATION_TYPE: solubility (mole fraction)

LINE_NOTATION	READING
CCCCOc1ccc(C(=O)CCN2CCCCC2)cc1.Cl	0.002

----------
- TEST_PARAMETERS: in water, 303.15 K

LINE_NOTATION	solubility (mole fraction)
CCCCOc1ccc(C(=O)CCN2CCCCC2)cc1.Cl	0.059

----------
- TEST_PARAMETERS: in methanol, 288.15 K

LINE_NOTATION	solubility (mole fraction)
CCCCOc1ccc(C(=O)CCN2CCCCC2)cc1.Cl	0.103

----------
- TEST_PARAMETERS: in n-hexane, 298.15 K

LINE_NOTATION	solubility (mole fraction)
CCCCOc1ccc(C(=O)CCN2CCCCC2)cc1.Cl	0.00137

----------
- TEST_PARAMETERS: in ethyl acetate, 298.15 K

LINE_NOTATION	solubility (mole fraction)
CCCCOc1ccc(C(=O)CCN2CCCCC2)cc1.Cl	0.0146

----------
- TEST_PARAMETERS: in DMF, 323.15 K
OBSERVATION_TYPE: solubility (mole fraction)

LINE_NOTATION	READING
CCCCOc1ccc(C(=O)CCN2CCCCC2)cc1.Cl	0.0608

----------
- TEST_PARAMETERS: in n-hexane, 308.15 K

LINE_NOTATION	solubility (mole fraction)
CCCCOc1ccc(C(=O)CCN2CCCCC2)cc1.Cl	0.00175

----------
- TEST_PARAMETERS: in n-hexane, 323.15 K
OBSERVATION_TYPE: solubility (mole fraction)

LINE_NOTATION	OBSERVATION_TYPE	READING
CCCCOc1ccc(C(=O)CCN2CCCCC2)cc1.Cl	solubility (mole fraction)	0.00253

----------
- TEST_PARAMETERS: in THF, 283.15 K

LINE_NOTATION	solubility (mole fraction)
CCCCOc1ccc(C(=O)CCN2CCCCC2)cc1.Cl	0.00098

----------
- TEST_PARAMETERS: in acetone, 298.15 K

LINE_NOTATION	solubility (mole fraction)
CCCCOc1ccc(C(=O)CCN2CCCCC2)cc1.Cl	0.0263

----------
- TEST_PARAMETERS: in THF, 278.15 K

LINE_NOTATION	solubility (mole fraction)
CCCCOc1ccc(C(=O)CCN2CCCCC2)cc1.Cl	0.00088

----------
- TEST_PARAMETERS: in DMF, 308.15 K

LINE_NOTATION	solubility (mole fraction)
CCCCOc1ccc(C(=O)CCN2CCCCC2)cc1.Cl	0.0421

----------
- TEST_PARAMETERS: in n-hexane, 288.15 K
OBSERVATION_TYPE: solubility (mole fraction)

LINE_NOTATION	OBSERVATION_TYPE	READING
CCCCOc1ccc(C(=O)CCN2CCCCC2)cc1.Cl	solubility (mole fraction)	0.00108

----------
- TEST_PARAMETERS: in methanol, 293.15 K

LINE_NOTATION	solubility (mole fraction)
CCCCOc1ccc(C(=O)CCN2CCCCC2)cc1.Cl	0.116

----------
- TEST_PARAMETERS: in ethyl acetate, 318.15 K
OBSERVATION_TYPE: solubility (mole fraction)

LINE_NOTATION	READING
CCCCOc1ccc(C(=O)CCN2CCCCC2)cc1.Cl	0.0338

----------
- TEST_PARAMETERS: in n-hexane, 293.15 K
OBSERVATION_TYPE: solubility (mole fraction)

LINE_NOTATION	READING
CCCCOc1ccc(C(=O)CCN2CCCCC2)cc1.Cl	0.00122

----------
- TEST_PARAMETERS: in ethanol, 303.15 K

LINE_NOTATION	solubility (mole fraction)
CCCCOc1ccc(C(=O)CCN2CCCCC2)cc1.Cl	0.111

----------
- TEST_PARAMETERS: in DMF, 313.15 K

LINE_NOTATION	solubility (mole fraction)
CCCCOc1ccc(C(=O)CCN2CCCCC2)cc1.Cl	0.0475

----------
- TEST_PARAMETERS: in water, 318.15 K

LINE_NOTATION	solubility (mole fraction)
CCCCOc1ccc(C(=O)CCN2CCCCC2)cc1.Cl	0.0888

----------
- TEST_PARAMETERS: in n-hexane, 313.15 K
OBSERVATION_TYPE: solubility (mole fraction)

LINE_NOTATION	READING
CCCCOc1ccc(C(=O)CCN2CCCCC2)cc1.Cl	0.00198

----------
- TEST_PARAMETERS: in THF, 323.15 K

LINE_NOTATION	solubility (mole fraction)
CCCCOc1ccc(C(=O)CCN2CCCCC2)cc1.Cl	0.00221

----------
- TEST_PARAMETERS: in ethanol, 298.15 K
OBSERVATION_TYPE: solubility (mole fraction)

LINE_NOTATION	READING
CCCCOc1ccc(C(=O)CCN2CCCCC2)cc1.Cl	0.0987

----------
- TEST_PARAMETERS: in THF, 308.15 K

LINE_NOTATION	solubility (mole fraction)
CCCCOc1ccc(C(=O)CCN2CCCCC2)cc1.Cl	0.00162

----------
- TEST_PARAMETERS: in water, 288.15 K

LINE_NOTATION	solubility (mole fraction)
CCCCOc1ccc(C(=O)CCN2CCCCC2)cc1.Cl	0.039

----------
- TEST_PARAMETERS: in ethyl acetate, 323.15 K
OBSERVATION_TYPE: solubility (mole fraction)

LINE_NOTATION	READING
CCCCOc1ccc(C(=O)CCN2CCCCC2)cc1.Cl	0.0415

----------
- TEST_PARAMETERS: in ethyl acetate, 313.15 K

LINE_NOTATION	solubility (mole fraction)
CCCCOc1ccc(C(=O)CCN2CCCCC2)cc1.Cl	0.0276

----------
- TEST_PARAMETERS: in methanol, 308.15 K

LINE_NOTATION	solubility (mole fraction)
CCCCOc1ccc(C(=O)CCN2CCCCC2)cc1.Cl	0.166

----------
- TEST_PARAMETERS: in ethanol, 293.15 K

LINE_NOTATION	solubility (mole fraction)
CCCCOc1ccc(C(=O)CCN2CCCCC2)cc1.Cl	0.0882

----------
- TEST_PARAMETERS: in water, 298.15 K

LINE_NOTATION	solubility (mole fraction)
CCCCOc1ccc(C(=O)CCN2CCCCC2)cc1.Cl	0.0514

----------
- TEST_PARAMETERS: in n-hexane, 318.15 K

LINE_NOTATION	solubility (mole fraction)
CCCCOc1ccc(C(=O)CCN2CCCCC2)cc1.Cl	0.00224

----------
- TEST_PARAMETERS: in DMF, 318.15 K

LINE_NOTATION	solubility (mole fraction)
CCCCOc1ccc(C(=O)CCN2CCCCC2)cc1.Cl	0.0539

----------
- TEST_PARAMETERS: in acetone, 313.15 K

LINE_NOTATION	solubility (mole fraction)
CCCCOc1ccc(C(=O)CCN2CCCCC2)cc1.Cl	0.0474

----------
- TEST_PARAMETERS: in methanol, 283.15 K
OBSERVATION_TYPE: solubility (mole fraction)

LINE_NOTATION	OBSERVATION_TYPE	READING
CCCCOc1ccc(C(=O)CCN2CCCCC2)cc1.Cl	solubility (mole fraction)	0.0905
